- Tested on: L1210 leukemia ip in BDF1 mice, survival T/C
- Procedure details: NCI In Vivo Anticancer Drug Screen. Data for tumor model L1210 Leukemia (intraperitoneal) in B6D2F1 (BDF1) mice
- Test parameters: endpoint: mean survival time; dose: 100.0 mg/kg/injection; schedule: Q01DX001 (ip); vehicle: carboxymethylcellulose (CMC)
Toxic doses and inconclusive results are not listed. Rule as the data show it: active = T/C of 150% or more; inactive = T/C below 125%.
Hi! Could you answer with just one of these? 1 = active, 0 = inactive

stdin: Each compound tested received a call. Report the one for NC(=S)N/N=C\c1ccccc1/C=N/NC(N)=S .
stdout: 0

stdin: Each compound tested received a call. Report the one for CC(=O)N(O)c1ccc(-c2cc3ccccc3[nH]2)cc1 .
stdout: 0

stdin: Each compound tested received a call. Report the one for CC1CCOCO1 (stereo unspecified) .
stdout: 0

stdin: Each compound tested received a call. Report the one for Nc1cccc2cccc([N+](=O)[O-])c12 .
stdout: 0

stdin: Each compound tested received a call. Report the one for CC(=O)Oc1ccc(-c2ccc(Cl)cc2)cc1 .
stdout: 0

stdin: Each compound tested received a call. Report the one for CCOCc1nc(N)nc(N)c1-c1ccc(Cl)c(Cl)c1 .
stdout: 0

stdin: Each compound tested received a call. Report the one for O=C1C(=O)c2cc(Cl)ccc2-c2ccccc21 .
stdout: 0

stdin: Each compound tested received a call. Report the one for c1ccc2c(c1)CCC1NC21 (stereo unspecified) .
stdout: 0

stdin: Each compound tested received a call. Report the one for O=C(COc1ccccc1)N(O)c1ccc(/C=C/c2ccccc2)cc1 .
stdout: 0

stdin: Each compound tested received a call. Report the one for CCOC(=O)/C(C#N)=C\c1cc(O)c(O)c(OC)c1 .
stdout: 0

stdin: Each compound tested received a call. Report the one for CCOC(=O)/C(C#N)=C1/C=C(N)CCC1 .
stdout: 0

stdin: Each compound tested received a call. Report the one for O=c1[nH]c2ccccc2c2ccc(Br)cc12 .
stdout: 0

stdin: Each compound tested received a call. Report the one for CC(=O)OCCC/C(=C/c1ccc(/C=C(\CCCOC(C)=O)[N+](=O)[O-])cc1)[N+](=O)[O-] .
stdout: 0

stdin: Each compound tested received a call. Report the one for Cn1c(=O)[nH]c(=O)c2[nH]c(CO)nc21 .
stdout: 0

stdin: Each compound tested received a call. Report the one for CCOc1cc(C=Nc2cc(Cl)c(O)c(Cl)c2)ccc1N(CCCl)CCCl .
stdout: 1

stdin: Each compound tested received a call. Report the one for Cc1cc(C)n(/N=C/c2ccc([N+](=O)[O-])o2)c(=O)c1C#N .
stdout: 0

stdin: Each compound tested received a call. Report the one for O=C1CCSc2ccccc21 .
stdout: 0

stdin: Each compound tested received a call. Report the one for O=C(Nc1ccc(C(=O)O)cc1)Nc1cc(C(F)(F)F)ccc1Cl .
stdout: 0

stdin: Each compound tested received a call. Report the one for CC12CCC(CC1Cl)C2 (stereo unspecified) .
stdout: 0

stdin: Each compound tested received a call. Report the one for CCOC(=O)c1ccc2c(c1)C(=O)c1cc([N+](=O)[O-])ccc1-2 .
stdout: 0

stdin: Each compound tested received a call. Report the one for NCC(O)c1cccc(O)c1 (stereo unspecified) .
stdout: 0
